Target: Dihydrofolate reductase (Homo sapiens, UniProt P00374)
Sequence (P00374 whole entry): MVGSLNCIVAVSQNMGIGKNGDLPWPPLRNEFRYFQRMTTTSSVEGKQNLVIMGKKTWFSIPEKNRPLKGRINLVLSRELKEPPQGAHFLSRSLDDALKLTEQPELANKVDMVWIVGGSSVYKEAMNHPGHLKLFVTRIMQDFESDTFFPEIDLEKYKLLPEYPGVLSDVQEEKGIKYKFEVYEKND
Assay: Inhibitory activity against recombinant human dihydrofolate reductase (DHFR)
MEASURE: pKi
Lab note: report pKi as minus log10 of the concentration in molar units, number only.

Worked cases, answers included:
COMPOUND: C[C@](CCC(=O)O)(NC(=O)c1ccc(CCC2CNc3nc(N)nc(N)c3C2)s1)C(=O)O (stereo partly drawn)
pKi: 9.16
--
COMPOUND: C[C@](CCC(=O)O)(NC(=O)c1ccc(CCC2CNc3nc(N)nc(N)c3C2)cc1)C(=O)O (stereo partly drawn)
pKi: 9.54

**Q:** Fill in the blank: the reported pKi of C[C@](CCC(=O)O)(NC(=O)c1ccc(CCC2CNc3nc(N)nc(N)c3C2)o1)C(=O)O (stereo partly drawn) is ____.
**A:** 8.01

###

Biological target: Thymidylate synthase (Homo sapiens, UniProt P04818)
Sequence (P04818 whole entry): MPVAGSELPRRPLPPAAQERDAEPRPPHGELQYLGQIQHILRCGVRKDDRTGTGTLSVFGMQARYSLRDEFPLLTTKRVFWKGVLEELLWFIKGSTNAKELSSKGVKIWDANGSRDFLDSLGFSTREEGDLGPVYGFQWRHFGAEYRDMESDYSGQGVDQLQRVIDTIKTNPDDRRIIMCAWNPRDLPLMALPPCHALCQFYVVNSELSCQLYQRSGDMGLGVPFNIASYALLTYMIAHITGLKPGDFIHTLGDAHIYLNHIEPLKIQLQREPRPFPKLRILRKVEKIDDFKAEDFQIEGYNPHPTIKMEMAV
Test: Inhibitory activity against recombinant human Thymidylate synthase
pKi: −log10 of the molar value.
MEASURE: pKi

**Q:** Reported pKi for Thymidylate synthase (Homo sapiens, UniProt P04818), given C[C@](CCC(=O)O)(NC(=O)c1ccc(CCC2CNc3nc(N)nc(N)c3C2)cc1)C(=O)O (stereo partly specified) ?
**A:** < 5.30
